This listing pairs variants with measured abundance fitness.
B1: Kinesin-like protein KIF16B, residues 1213 to 1273; numbered along this chain, Q96L93 (parent)
chain: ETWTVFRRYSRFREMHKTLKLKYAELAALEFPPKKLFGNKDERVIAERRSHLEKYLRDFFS

# Variants of: B1
# assayProcedure: abundance fitness (aPCA) (normalised: wild type 0, dead -1); higher = more abundant; growth selection in yeast, the domain comes from the species named
# settings: Homo sapiens
quantityKind: abundance fitness

>>> df
                               sequencecode  result
0  ETWTVFRRYSMFREMHKTLKLKYAELAALEFPPKKLFGNKDERVIAERRSHLEKYLRDFFS [R11M]   0.423
1  ETWTVFRRYSRFREMHKTLKLKYAELAAIEFPPKKLFGNKDERVIAERRSHLEKYLRDFFS [L29I]   0.427
2  ETWTVFRRYSRFREMHKTLKLKYAELAALEFPPKKLFGNKDERVIAERPSHLEKYLRDFFS [R49P]  -0.273
